- ASSAY METHOD TEXT: self-splicing fitness, log relative to wild type (ln ratio); higher = more splicing; Tetrahymena group I intron in knt gene, E. coli kanamycin selection, DiMSum; sequences stand for … in CUCUCU…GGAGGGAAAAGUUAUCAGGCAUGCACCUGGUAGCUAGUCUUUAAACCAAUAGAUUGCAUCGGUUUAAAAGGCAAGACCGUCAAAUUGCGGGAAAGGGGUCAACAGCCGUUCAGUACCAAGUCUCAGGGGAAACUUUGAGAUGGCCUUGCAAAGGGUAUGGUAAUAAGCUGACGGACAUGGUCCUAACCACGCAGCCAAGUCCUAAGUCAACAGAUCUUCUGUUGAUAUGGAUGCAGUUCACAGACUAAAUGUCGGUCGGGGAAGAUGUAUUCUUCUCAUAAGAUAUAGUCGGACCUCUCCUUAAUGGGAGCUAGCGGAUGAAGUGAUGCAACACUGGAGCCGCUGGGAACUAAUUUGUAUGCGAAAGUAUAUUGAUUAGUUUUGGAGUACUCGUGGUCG;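 further: selection with 25 µg/mL kanamycin versus none on LB agar overnight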
- CONDITION SUMMARY: 37 °C
QUANTITY KIND: self-splicing fitness (ln)
Lab note: jot down the number only; don't add units.

{"RESIDUE SEQUENCE": "GCCUAGCAAUAUUACGGUCA", "REPORTED": -0.494}
{"RESIDUE SEQUENCE": "UCUAAGCAAUAUUACGCCUC", "REPORTED": -2.98}
{"RESIDUE SEQUENCE": "CCGUAGCAAUAUUACGAAUU", "REPORTED": -2.85}
{"RESIDUE SEQUENCE": "UGUCAGCAAUAUUACGAGGU", "REPORTED": -2.81}
{"RESIDUE SEQUENCE": "GGGCAGCAAUAUUACGAGAU", "REPORTED": -2.41}
{"RESIDUE SEQUENCE": "CGUAAGCAAUAUUACGGAGA", "REPORTED": -2.28}

Exercise: Entry under review: CCGAAGCAAUAUUACGCGAG . Reported self-splicing fitness (ln)?
Solution: -2.08

Exercise: Need self-splicing fitness (ln) of GCAGAGCAAUAUUACGAAAG , thanks.
Solution: -3.24

Exercise: Consider the sequence shown here: AUACAGCAAUAUUACGAGCA What is its recorded self-splicing fitness (ln)?
Solution: -1.91

Exercise: Entry GUAAAGCAAUAUUACGGUGU has what self-splicing fitness (ln)?
Solution: -0.647

Exercise: Fill blank: measured self-splicing fitness (ln) of the sequence GCGUAGCAAUAUUACGAUCU is ____.
Solution: -0.0119

Exercise: Which self-splicing fitness (ln) value is on record for UGGUAGCAAUAUUACGACGC ?
Solution: 1.38

Exercise: Quick one: self-splicing fitness (ln) for CUUGAGCAAUAUUACGUGUG ?
Solution: -0.901

Exercise: Fill in: self-splicing fitness (ln) of UAGGAGCAAUAUUACGGUAU is ___
Solution: -2.66

Exercise: GET /values?readout=self-splicing fitness (ln)&item= GUUGAGCAAUAUUACGGCAA
Solution: -0.283

Exercise: // query self-splicing fitness (ln) value for entry GUUAAGCAAUAUUACGAGUC
Solution: -1.86

Exercise: Fill in: self-splicing fitness (ln) of UUGAAGCAAUAUUACGGAAG is ___
Solution: -0.383

* * *

Catalogue of self-splicing fitness (ln) readings, one per entry.
- ASSAY METHOD TEXT: self-splicing fitness, log relative to wild type (ln ratio); higher = more splicing; Tetrahymena group I intron in knt gene, E. coli kanamycin selection, DiMSum; sequences stand for … in CUCUCU…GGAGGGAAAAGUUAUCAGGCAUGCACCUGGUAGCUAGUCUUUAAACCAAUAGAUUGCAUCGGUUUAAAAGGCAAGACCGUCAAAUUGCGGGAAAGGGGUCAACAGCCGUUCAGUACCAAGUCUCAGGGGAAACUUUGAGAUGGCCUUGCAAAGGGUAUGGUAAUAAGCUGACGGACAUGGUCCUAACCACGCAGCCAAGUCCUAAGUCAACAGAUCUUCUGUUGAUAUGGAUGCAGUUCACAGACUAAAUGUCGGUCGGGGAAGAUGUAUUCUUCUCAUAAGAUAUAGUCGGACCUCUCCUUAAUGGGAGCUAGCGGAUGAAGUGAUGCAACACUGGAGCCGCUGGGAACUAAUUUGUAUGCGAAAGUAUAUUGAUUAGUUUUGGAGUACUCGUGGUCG
- CONDITION SUMMARY: 37 °C
Respond with the number and no other words.

Exercise: Query (sequence): AUCGAGCAAUAUUACGGUUA ; field requested: self-splicing fitness (ln)
Solution: -1.04

Exercise: Can you share its self-splicing fitness (ln)? I mean this sequence: ACUGAGCAAUAUUACGAUCG
Solution: -1.99

Exercise: Given the sequence GGGUAGCAAUAUUACGUGUC , what is its reported self-splicing fitness (ln)?
Solution: -0.684

Exercise: Item under review: UCGCAGCAAUAUUACGCACU . Reported self-splicing fitness (ln)?
Solution: -0.563

Exercise: Requested read-out: self-splicing fitness (ln). Entry: CGAAAGCAAUAUUACGCGUC
Solution: -0.242

Exercise: Name the recorded self-splicing fitness (ln) for CACAAGCAAUAUUACGAUGC .
Solution: -2.69

Exercise: Given CCUCAGCAAUAUUACGAGAG , state its recorded self-splicing fitness (ln).
Solution: -1.47

Exercise: GET /values?readout=self-splicing fitness (ln)&item= GUUUAGCAAUAUUACGAGGG
Solution: -2.73

* * *

- ASSAY METHOD TEXT: self-splicing fitness, log relative to wild type (ln ratio); higher = more splicing; Tetrahymena group I intron in knt gene, E. coli kanamycin selection, DiMSum; sequences stand for … in CUCUCU…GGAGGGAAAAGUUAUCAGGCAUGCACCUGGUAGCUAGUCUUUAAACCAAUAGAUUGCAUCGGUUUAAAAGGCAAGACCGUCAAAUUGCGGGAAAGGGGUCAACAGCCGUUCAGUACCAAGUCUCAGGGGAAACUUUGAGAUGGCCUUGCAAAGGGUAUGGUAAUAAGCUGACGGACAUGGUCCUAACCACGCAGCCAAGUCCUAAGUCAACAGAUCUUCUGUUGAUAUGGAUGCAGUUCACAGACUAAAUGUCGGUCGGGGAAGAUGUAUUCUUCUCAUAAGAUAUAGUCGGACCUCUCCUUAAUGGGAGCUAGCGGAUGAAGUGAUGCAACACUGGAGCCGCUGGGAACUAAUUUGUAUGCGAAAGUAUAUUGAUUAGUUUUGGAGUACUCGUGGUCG
- CONDITION SUMMARY: 30 °C
# thresholds on self-splicing fitness (ln) define classes: bin 1 = under -3, bin 2 = from -3 up to -1, bin 3 = -1 and over

# example entries with known answers
{"RESIDUE SEQUENCE": "GUCUAGCAAUAUUACGCCCU", "GROUP": "bin 3"}
{"RESIDUE SEQUENCE": "GCUUAGCAAUAUUACGUUCU", "GROUP": "bin 2"}
{"RESIDUE SEQUENCE": "CUCUAGCAAUAUUACGGGGA", "GROUP": "bin 2"}
{"RESIDUE SEQUENCE": "CGUCAGCAAUAUUACGAGUU", "GROUP": "bin 1"}
{"RESIDUE SEQUENCE": "AGACAGCAAUAUUACGCUUG", "GROUP": "bin 2"}
{"RESIDUE SEQUENCE": "CAUGAGCAAUAUUACGCAUC", "GROUP": "bin 2"}
{"RESIDUE SEQUENCE": "UCUUAGCAAUAUUACGACGA", "GROUP": "bin 3"}
{"RESIDUE SEQUENCE": "GGCAAGCAAUAUUACGUUUA", "GROUP": "bin 2"}

Exercise: Into which bin does this sequence go? GUAAAGCAAUAUUACGUGCC
Solution: bin 1

Exercise: Please report the category associated with UUUGAGCAAUAUUACGCAAU , nothing else.
Solution: bin 1

Exercise: Lab note: sort AACUAGCAAUAUUACGUGAG into the matching self-splicing fitness (ln) band.
Solution: bin 2

Exercise: Which self-splicing fitness (ln) band matches UGGAAGCAAUAUUACGGGUU ?
Solution: bin 2

Exercise: Hello team, could you let me know which band the following sequence falls into: GAAAAGCAAUAUUACGUCUU
Solution: bin 3

Exercise: Band for CAUGAGCAAUAUUACGGCGU ?
Solution: bin 1

Exercise: For the record UCAUAGCAAUAUUACGCGGC , report the class its self-splicing fitness (ln) corresponds to.
Solution: bin 1

* * *

- ASSAY METHOD TEXT: self-splicing fitness, log relative to wild type (ln ratio); higher = more splicing; Tetrahymena group I intron in knt gene, E. coli kanamycin selection, DiMSum; sequences stand for … in CUCUCU…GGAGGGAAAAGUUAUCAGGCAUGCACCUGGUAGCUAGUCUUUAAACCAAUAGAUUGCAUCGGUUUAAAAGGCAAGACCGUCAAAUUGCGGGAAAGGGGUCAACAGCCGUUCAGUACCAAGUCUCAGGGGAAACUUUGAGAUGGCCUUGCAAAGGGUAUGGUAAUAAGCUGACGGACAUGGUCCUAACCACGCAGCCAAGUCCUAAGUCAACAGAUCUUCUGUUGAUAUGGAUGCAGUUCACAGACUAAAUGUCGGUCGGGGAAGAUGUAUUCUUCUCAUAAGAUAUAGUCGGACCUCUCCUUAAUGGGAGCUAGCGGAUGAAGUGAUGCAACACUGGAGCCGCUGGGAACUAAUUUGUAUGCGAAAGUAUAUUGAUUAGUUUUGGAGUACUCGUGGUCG
- CONDITION SUMMARY: 37 °C
QUANTITY KIND: self-splicing fitness (ln)
Could you keep your reply to the number by itself?

{"RESIDUE SEQUENCE": "GAAUAGCAAUAUUACGAUGA", "QUANTITY KIND": "self-splicing fitness (ln)", "REPORTED": -0.62}

Please find the next sequence below.
Exercise: Please give the measured self-splicing fitness (ln) for this sequence: CGGUAGCAAUAUUACGACCC
Solution: -1.29
